System: Streptococcus sp.
Assay: in vitro antibacterial evaluation, MIC by broth dilution
Type: cell-based
Conditions: broth dilution, 18 hours at 35° C.
MEASUREMENT NAME: MIC Streptococcus pyogenes (GC 4563) (µg/mL)
Just the number please, in µg/mL, no unit attached.

Value of measured MIC Streptococcus pyogenes (GC 4563) for the entry CCCOc1ccc(COCC2OC(OC3C(CO)OC(Oc4ccc(CC5NC(=O)C(C(C)c6ccccc6)NC(=O)CNC(=O)C(CO)NC(=O)C(C(O)C6CNC(=N)N6C6OC(CO)C(O)C(O)C6O)NC(=O)C(C(O)C6CNC(=N)N6)NC5=O)cc4)C(O)C3O)C(O)C(O)C2O)cc1 (stereo not shown) [Example 235] : 0.25

Data point: CC(c1ccccc1)C1NC(=O)CNC(=O)C(CO)NC(=O)C(C(O)C2CN(Cc3ccc4ccccc4c3)C(=N)N2C2OC(CO)C(O)C(O)C2O)NC(=O)C(C(O)C2CNC(=N)N2)NC(=O)C(Cc2ccc(OC3OC(CO)C(OC4OC5COC6(OC5C(O)C4O)C4CC5CC(C4)CC6C5)C(O)C3O)cc2)NC1=O (stereo not shown) [Example 78] ; MIC Streptococcus pyogenes (GC 4563) = 0.5
